System: A549 cells
test: CCK-8 antiproliferative assay, A549
Type: cell-based
test-conditions: Homo sapiens, A549; CCK-8, 48 h, mean ± SD of three experiments; read-out: IC50 A549
pIC50: −log10 of the molar value.
quantity-name: pIC50

C[C@H]1CCC/C=C/[C@@H]2C[C@H](OC(=O)CCC(=O)OCCOC(=O)c3ccc(N=C=S)cc3)C[C@H]2[C@H](OC(=O)CCC(=O)OCCOC(=O)c2ccc(N=C=S)cc2)/C=C/C(=O)O1 [Compound 8a]: < 4.40
C[C@H]1CCC/C=C/[C@@H]2C[C@H](OC(=O)CCC(=O)OCC#CCOC(=O)c3ccc(N=C=S)cc3)C[C@H]2[C@H](OC(=O)CCC(=O)OCC#CCOC(=O)c2ccc(N=C=S)cc2)/C=C/C(=O)O1 [Compound 8c]: < 4.40

Next compound, please.
Lookup: Entry C[C@H]1CCC/C=C/[C@@H]2C[C@H](OC(=O)c3ccc(N=C=S)cc3)C[C@H]2[C@H](OC(=O)c2ccc(N=C=S)cc2)/C=C/C(=O)O1 [Compound 5] : reported pIC50 = ?
Found: 4.68
